system: Glycine max (GLXMA); assay: Pre-emergence effects on crop plants; type: in vivo; conditions: 320 g/ha, crop plant
Parameter Measured: pre-emergence activity against GLXMA (crop damage) (%)

>  <Compound>
COCCOC(=O)CC1CCC(=O)N1Cc1cccc(F)c1F (racemic) [Example I-015]

>  <Assay Result>
0

$$$$
>  <Compound>
O=C(O)CC1CCC(=O)N1Cc1cccc(F)c1F (single isomer, unassigned) [Example I-014]

>  <Assay Result>
0

$$$$
>  <Compound>
Cn1ncnc1NC(=O)CC1CCC(=O)N1Cc1cccc(F)c1F (racemic) [Example I-002]

>  <Assay Result>
0

$$$$
>  <Compound>
O=C(O)CC1CCC(=O)N1Cc1cc(F)cc(F)c1F (racemic) [Example I-201]

>  <Assay Result>
0

$$$$
>  <Compound>
Cn1ncnc1NC(=O)CC1CCC(=O)N1Cc1cccc(F)c1F (single isomer, unassigned) [Example I-075]

>  <Assay Result>
0

$$$$
>  <Compound>
O=C(CC1CCC(=O)N1Cc1cccc(F)c1F)OCCOc1ccc(F)cc1 (racemic) [Example I-007]

>  <Assay Result>
0

$$$$
>  <Compound>
COC(=O)c1ccccc1NC(=O)CC1CCC(=O)N1Cc1cccc(F)c1F (racemic) [Example I-080]

>  <Assay Result>
0

$$$$
